# tested target: T1, SHROOM4, Q9ULL8
# T1 sequence (Q9ULL8 5-102, limits assumed, looked up): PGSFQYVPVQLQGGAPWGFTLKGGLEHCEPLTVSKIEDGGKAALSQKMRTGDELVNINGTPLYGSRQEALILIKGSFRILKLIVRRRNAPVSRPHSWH
# experimental protocol: holdup assay
# Design: key: below the threshold = too weak to quantify, mostly under pKd 3.1 to 4
# particulars: plain residues with an end cap or a label only (N-terminal biotin on a linker: ttds)
value kind: pKd

- binder: "SSLQSLETSV [ATP2B4, P23634]"
  result: 4.68
- binder: "QRQARSETLV [HPV59-E6, Q81964]"
  result: "below the threshold"
- binder: "RLQRRRETQV [HPV18-E6, P06463]"
  result: "below the threshold"
- binder: "SGSRPSATVV [HPV73-E6, Q82005]"
  result: "below the threshold"

Recorded values, source paper PMC9482650.
